Field: Activity. Provide a value for each of the molecules that follow.
- Tested on: Mus musculus
- protocol_notes: Reduction of postprandial plasma triglyceride level in C57BL/6J mouse at 3 mg/kg, po administered 15 mins prior to corn oil bolus challenge measured after 2 hrs relative to vehicle-treated control
- Type: functional
- Design: scale not given: the % may be the effect or the level left
Field format: number, assumed %, no unit text.

Noted for Cc1cc(C(=O)NCCCCCc2ccccc2)c2ccc(-c3ccc([C@H]4CC[C@H](CC(=O)O)CC4)cc3)cc2n1 : its Activity reads -58

For record Cc1cc(C(=O)Nc2ccccc2)c2ccc(-c3ccc([C@H]4CC[C@H](CC(=O)O)CC4)cc3)cc2n1 the listed Activity is -100

The reported value for Cc1cc(C(=O)Nc2ccccc2)c2ccc(-c3ccc(OCC(C)(C)C(=O)O)[n+]([O-])c3)cc2n1 in terms of Activity is -40

Per the record, Cc1cc(C(=O)Nc2ccccc2)c2ccc(-c3ccc(OCC(C)(C)C(=O)O)nc3)cc2n1 has Activity of -91

# Activity (molecule: CC(C)c1cccc(NC(=O)c2ccnc3cc(-c4ccc([C@H]5CC[C@H](CC(=O)O)CC5)cc4)ccc23)c1 ) is -76
